// provenance: ChEMBL document CHEMBL4190209

- Assay procedure: Cytotoxicity against human KBv200 cells assessed as growth inhibition after 72 hrs by MTT assay
- Assay type: functional, cell-based
- Condition description: KBv200, 72 h
pIC50: −log10 of the molar value.
Entries and their pIC50

- Compound: "CC(=O)CC/C(=C/C1=C(C)CCC1=O)C(C)C"
  pIC50: "< 4.52"
- Compound: "C[C@H](/C=C/C=O)[C@@H]1CC[C@]2(C)C3=C(CC[C@@]12C)[C@@]1(C)CC[C@H](O)C(C)(C)[C@@H]1CC3=O"
  pIC50: "< 4.52"
- Compound: "CC(=O)N[C@@H]1[C@@H]2[C@H](CC[C@@]3(C)[C@H](O)[C@H]4[C@@H](OC(=O)/C=C/c5ccccc5)[C@@H](C)C[C@]4(O)C(=O)[C@@]13C)C2(C)C"
  pIC50: "< 4.52"
- Compound: "CC1=C2C=C3CC[C@@H]4C(C)(C)C(=O)CC[C@@]4(C)[C@@H]3C[C@H]2OC1=O [HELIOSCOPINOLIDE E]"
  pIC50: "< 4.52"
- Compound: "C=C1CC[C@H]2[C@@H](/C=C(\\C)C(=O)[C@@]3(OC(C)=O)C[C@H](C)[C@H](O)[C@@H]3[C@H]1O)C2(C)C"
  pIC50: "< 4.52"
- Compound: "C[C@H]1CC2=C([C@H]1O)[C@@H](O)[C@]1(C)CC[C@H]3[C@@H]([C@@H](OC(=O)c4ccccc4)[C@]1(C)C2=O)C3(C)C"
  pIC50: 4.79
